target: Caspase-6 (Homo sapiens, UniProt P55212); assay: Inhibitory concentration required against caspase-6
Sequence (P55212 24-179 limits assumed): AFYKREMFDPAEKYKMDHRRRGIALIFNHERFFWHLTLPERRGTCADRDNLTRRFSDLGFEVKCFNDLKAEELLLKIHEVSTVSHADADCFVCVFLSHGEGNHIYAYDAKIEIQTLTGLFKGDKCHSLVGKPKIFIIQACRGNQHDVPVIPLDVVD
Sequence (P55212 194-293 limits assumed): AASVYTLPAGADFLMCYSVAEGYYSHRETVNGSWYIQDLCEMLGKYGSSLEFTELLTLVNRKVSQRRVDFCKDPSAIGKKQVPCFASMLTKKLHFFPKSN
pIC50: −log10 of the molar value.
valueKind: pIC50

| compound | assayedSystem | relationalOperator | recordedNumber |
| --- | --- | --- | --- |
| CC(C)C[C@H](NC(=O)COc1ccccc1)C(=O)N[C@H]1CC(=O)OC1O (stereo not given in full) | Caspase-6 (Homo sapiens, UniProt P55212) | < | 4.30 |
| CC(C)C[C@H](NC(=O)CSc1ccc2ccccc2c1)C(=O)N[C@H]1CC(=O)OC1O (stereo not given in full) | Caspase-6 (Homo sapiens, UniProt P55212) | = | 5.50 |
| CC(C)C[C@H](NC(=O)c1ccc2ccccc2c1)C(=O)N[C@H]1CC(=O)OC1O (stereo not given in full) | Caspase-6 (Homo sapiens, UniProt P55212) | < | 5.00 |
| CC(C)C[C@H](NC(=O)COc1ccccc1-c1ccccc1)C(=O)N[C@H]1CC(=O)OC1O (stereo not given in full) | Caspase-6 (Homo sapiens, UniProt P55212) | = | 6.14 |
| CC(C)C[C@H](NC(=O)C(C)Oc1cccc2ccccc12)C(=O)N[C@H]1CC(=O)OC1O (stereo not given in full) | Caspase-6 (Homo sapiens, UniProt P55212) | = | 5.89 |

====

molecular target: Caspase-6 (Homo sapiens, UniProt P55212); experiment: Inhibitory concentration required against caspase-6
Field 'label' (enum: class 1 / class 0). Set to class 1 when IC50 is strictly under 10 µM; else class 0.

| compound | assayedSystem | className |
| --- | --- | --- |
| CC(C)C[C@H](Nc1ccccc1)C(=O)N[C@H]1CC(=O)OC1O (some centres undefined) | Caspase-6 (Homo sapiens, UniProt P55212) | class 0 |
| CC(C)C[C@H](NC(=O)Cc1ccc2ccccc2c1)C(=O)N[C@H]1CC(=O)OC1O (some centres undefined) | Caspase-6 (Homo sapiens, UniProt P55212) | class 0 |
| Cc1ccc(OCC(=O)N[C@@H](CC(C)C)C(=O)N[C@H]2CC(=O)OC2O)c(C23CC4CC(CC(C4)C2)C3)c1 (some centres undefined) | Caspase-6 (Homo sapiens, UniProt P55212) | class 1 |
| CC(C)C[C@H](NC(=O)COc1nccc2ccccc12)C(=O)N[C@H]1CC(=O)OC1O (some centres undefined) | Caspase-6 (Homo sapiens, UniProt P55212) | class 0 |
| CC(C)C[C@H](NC(=O)COc1ccnc2ccccc12)C(=O)N[C@H]1CC(=O)OC1O (some centres undefined) | Caspase-6 (Homo sapiens, UniProt P55212) | class 0 |
| CC(C)C[C@H](NC(=O)COc1ccc(OCc2ccccc2)cc1)C(=O)N[C@H]1CC(=O)OC1O (some centres undefined) | Caspase-6 (Homo sapiens, UniProt P55212) | class 0 |
| CC(C)C[C@H](NC(=O)COc1ccc(Oc2ccccc2)cc1)C(=O)N[C@H]1CC(=O)OC1O (some centres undefined) | Caspase-6 (Homo sapiens, UniProt P55212) | class 0 |
| CC(C)C[C@H](NC(=O)COc1cccc2ncccc12)C(=O)N[C@H]1CC(=O)OC1O (some centres undefined) | Caspase-6 (Homo sapiens, UniProt P55212) | class 0 |
| CC(C)C[C@H](NC(=O)/C=C/c1ccccc1)C(=O)N[C@H]1CC(=O)OC1O (some centres undefined) | Caspase-6 (Homo sapiens, UniProt P55212) | class 1 |
